- assay details: Antiproliferative activity against human MP41 cells assessed as reduction in cell viability measured after 72 hrs by CCK-8 method
- Format: functional, cell-based
- assay conditions: MP41, 72 h
endpoint name: pIC50
Answer as the number alone; pIC50 is minus log10 of concentration in mol/L.

Problem: Note pIC50 for the compound shown: CC[C@H](C)[C@H](N)C(=O)N1CCn2cc(-c3ccccc3)nc2[C@@H]1CC1CCCCC1
Result: 4.62

Problem: Note pIC50 for the compound shown: CN(C)CCN1CCn2cc(-c3ccc4c(c3)CCCC4)nc2[C@@H]1CC1CCCCC1
Result: 5.03

Problem: Note pIC50 for the compound shown: CC[C@H](C)[C@H](N)C(=O)N1CCn2cc(-c3cccc([N+](=O)[O-])c3)nc2[C@@H]1CC1CCCCC1
Result: 5.00

* * *

- assay details: Metabolic stability in human liver microsomes assessed as half life preincubated for 15 mins followed by NADPH addition and measured upto 45 mins by LC-MS/MS analysis
- Type: ADME, Microsome
- assay conditions: time < 60 min
endpoint name: half-life (h)
All answers are understood in h, so give the number only.

Problem: Note half-life for the compound shown: CC[C@H](C)[C@H](N)C(=O)N1CCn2cc(-c3ccc4c(c3)CCCC4)nc2[C@@H]1CC1CCCCC1.O=C(O)C(F)(F)F
Result: 1.77

* * *

- assay system: GNAQ/GNA11 (Homo sapiens) (UniProt P50148+P29992)
- assay details: Inhibition of Galphaq/11 (unknown origin) expressed in CHO-M1 cells at 10 uM preincubated for 1 hr followed by carbachol stimulation for 30 mins and measured after 1 hr by IP1 accumulation based HTRF assay relative to control
- Assay type: cell-based
- assay conditions: time 150.0 min
Consider the following molecules; for each one, report its inhibition.
All answers are understood in %, so give the number only.

Problem: Note inhibition for the molecule shown: CC[C@H](C)[C@H](N)C(=O)N1CCn2cc(-c3ccc(Cl)cc3)nc2[C@@H]1CC1CCCCC1
Result: 26.5

Problem: Note inhibition for the molecule shown: CC[C@H](C)[C@H](N)C(=O)N1CCn2cc(-c3cccc(C(=O)OC)c3)nc2[C@@H]1CC1CCCCC1
Result: 4.1

Problem: Note inhibition for the molecule shown: CC[C@H](C)[C@H](N)C(=O)N1CCn2cc(-c3cccc(Cl)c3OC)nc2[C@@H]1CC1CCCCC1
Result: 24.2

Problem: Note inhibition for the molecule shown: CC[C@H](C)[C@H](N)C(=O)N1CCn2cc(-c3cc(F)cc(Cl)c3)nc2[C@@H]1CC1CCCCC1
Result: 16.8

* * *

- assay details: Metabolic stability in human liver microsomes assessed as intrinsic clearance preincubated for 15 mins followed by NADPH addition and measured upto 45 mins by LC-MS/MS analysis
- Format: ADME, Microsome
- assay conditions: time < 60 min, read-out: CLH
endpoint name: CLint scaled

Problem: Note CLint scaled for the compound shown: CC[C@H](C)[C@H](N)C(=O)N1CCn2cc(-c3ccc4c(c3)CCCC4)nc2[C@@H]1CC1CCCCC1.O=C(O)C(F)(F)F
Result: 16.4 mL/min/kg

* * *

Consider the following compounds; for each one, report its pIC50.
- assay details: Antiproliferative activity against human MP41 cells assessed as reduction in cell viability measured after 72 hrs by CCK-8 method
- Assay type: functional, cell-based
- assay conditions: MP41, 72 h
Answer as the number alone; pIC50 is minus log10 of concentration in mol/L.

Problem: Note pIC50 for the compound shown: CCC[C@H](N)CN1CCn2cc(-c3ccc4c(c3)CCCC4)nc2[C@@H]1CC1CCCCC1
Result: 5.05

Problem: Note pIC50 for the compound shown: CC[C@H](C)[C@H](N)C(=O)N1CCn2cc(-c3cccc(F)c3F)nc2[C@@H]1CC1CCCCC1
Result: 4.59

Problem: Note pIC50 for the compound shown: CC[C@H](C)[C@H](N)C(=O)N1CCn2cc(-c3cccc(F)c3)nc2[C@@H]1CC1CCCCC1
Result: 4.70
